The values you see were collected from paper PMC5829263.

experimentalTarget: recombinant human arginase 1 (Homo sapiens, UniProt P05089)
Sequence (P05089 whole entry): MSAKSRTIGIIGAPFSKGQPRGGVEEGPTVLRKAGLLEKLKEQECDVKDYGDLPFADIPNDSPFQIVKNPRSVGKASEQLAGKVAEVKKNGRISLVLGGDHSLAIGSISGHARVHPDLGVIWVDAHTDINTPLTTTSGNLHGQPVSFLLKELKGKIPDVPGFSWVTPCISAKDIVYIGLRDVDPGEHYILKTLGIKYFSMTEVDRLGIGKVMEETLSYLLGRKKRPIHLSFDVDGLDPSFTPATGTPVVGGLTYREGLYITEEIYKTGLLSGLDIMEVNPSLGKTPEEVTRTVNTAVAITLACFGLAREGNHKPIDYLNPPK
testDetails: Arginase 1 inhibition, UPLC-MS measurement of ARG to ORN conversion in HEK293T cell lysate
testConditions: read-out: % of control activity at the corresponding [Inhibitor] ± SE, arginase 1; ARG 100 µM; inhibitor 1 µM; mean of two experiments
The reader will find reported remaining activity at 1 µM values listed item by item below.
# output: bare number, implied unit %

Previously resolved entries follow.
O=C(O)[C@@H]1CCCN1 [PRO, proline]    115
NCCCC[C@H](N)C(=O)O [LYS, lysine]    88
[H]/N=C(/NC)NCCC[C@H](N)C(=O)O [L-NMMA, NG-Monomethyl-L-arginine]    91

Consider the additional molecule presented here.
Q) Could you tell me which remaining activity at 1 µM is on file for NCCCCN=C(N)N [AG, agmatine] ?
A) 94

###

experimentalTarget: recombinant human arginase 2 (Homo sapiens)
testDetails: Arginase 2 inhibition, UPLC-MS measurement of ARG to ORN conversion in HEK293T cell lysate
testConditions: read-out: % of control activity at the corresponding [Inhibitor] ± SE, arginase 2; ARG 100 µM; inhibitor 100 µM; mean of two experiments
The reader will find reported remaining activity at 100 µM values listed item by item below.
# output: bare number, implied unit %

Previously resolved entries follow.
NCCCCN=C(N)N    92
[H]/N=C(/NC)NCCC[C@H](N)C(=O)O    106
O=C(O)[C@@H]1CCCN1    99

Consider the additional compound presented here.
Q) Could you tell me which remaining activity at 100 µM is on file for NCCCC[C@H](N)C(=O)O ?
A) 78

###

experimentalTarget: recombinant human arginase 1 (Homo sapiens, UniProt P05089)
testDetails: Arginase 1 inhibition, UPLC-MS measurement of ARG to ORN conversion in HEK293T cell lysate;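 further: arginase 1–expressing HEK293T lysate at 0.05 mg/mL in pH 7.4 phosphate buffer, inhibitor preincubated 5 min with enzyme, then reaction started by adding ARG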
testConditions: read-out: % of control activity at the corresponding [Inhibitor] ± SE, arginase 1; ARG 3 mM; inhibitor 1 µM; mean of two experiments
reportedEndpoint: remaining activity at 1 µM (%)
# output: bare number, implied unit %

Previously resolved entries follow.
O=C(O)[C@@H]1CCCN1 [PRO, proline]    100
NCCCC[C@H](N)C(=O)O [LYS, lysine]    108
[H]/N=C(/NC)NCCC[C@H](N)C(=O)O [L-NMMA, NG-Monomethyl-L-arginine]    107

Consider the additional compound presented here.
Q) Quick check: remaining activity at 1 µM on recombinant human arginase 1 (Homo sapiens, UniProt P05089), item NCCCCN=C(N)N [AG, agmatine] ?
A) 84

###

experimentalTarget: recombinant human arginase 2 (Homo sapiens, UniProt P78540)
Sequence (P78540 23-354): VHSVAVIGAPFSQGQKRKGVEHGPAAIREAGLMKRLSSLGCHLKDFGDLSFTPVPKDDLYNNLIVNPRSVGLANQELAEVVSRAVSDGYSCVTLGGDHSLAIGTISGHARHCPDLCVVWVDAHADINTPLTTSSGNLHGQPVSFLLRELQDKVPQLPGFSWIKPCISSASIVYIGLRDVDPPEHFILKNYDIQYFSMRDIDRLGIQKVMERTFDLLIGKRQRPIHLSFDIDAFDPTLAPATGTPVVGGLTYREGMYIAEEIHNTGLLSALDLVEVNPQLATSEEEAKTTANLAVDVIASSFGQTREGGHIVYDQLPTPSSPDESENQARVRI
testDetails: Arginase 2 inhibition, UPLC-MS measurement of ARG to ORN conversion in HEK293T cell lysate;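 further: HEK293T lysate carrying arginase 2 at 0.1 mg/mL in 0.05 M phosphate buffer pH 7.4, inhibitor preincubated with enzyme 5 min before ARG addition started the reaction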
testConditions: read-out: % of control activity at the corresponding [Inhibitor] ± SE, arginase 2; ARG 100 µM; inhibitor 10 µM; mean of two experiments
The reader will find reported remaining activity at 10 µM values listed item by item below.
Include the unit after the number when you answer.

Q) Could you tell me which remaining activity at 10 µM is on file for O=C(O)[C@@H]1CCCN1 ?
A) 99%

Q) Could you tell me which remaining activity at 10 µM is on file for NCCCC[C@H](N)C(=O)O ?
A) 97%

Q) Could you tell me which remaining activity at 10 µM is on file for [H]/N=C(/NC)NCCC[C@H](N)C(=O)O ?
A) 106%

Q) Could you tell me which remaining activity at 10 µM is on file for NCCCCN=C(N)N ?
A) 98%
